Ref: ChEMBL document CHEMBL3616432

We begin with a simple list: items and their reported Papp.
- measurement_notes: Permeability of the compound at pH 7.4 by PAMPA assay
- Assay type: physicochemical
- conditions: read-out: permeability
readout: Papp (×10⁻⁶ cm/s)

> print(dat)
                                   compound  readout  observed.result
1  CC(C)c1ccc2c(c1)CC[C@H]1[C@](C)(CNS(=O)(=O)c3c(F)c(F)c(F)c(F)c3F)CCC[C@]21C     Papp             62.5
2  NC(=O)N1c2ccccc2C=Cc2ccccc21 [CARBAMAZEPINE]     Papp              128

----------
- measurement_notes: Efflux ratio of permeability from basolateral to apical side over apical to basolateral side in human Caco2 cells
- Format: ADME, cell-based
- conditions: Caco-2
readout: efflux ratio

> print(dat)
                                   compound  observed.result
1  NC(=O)N1c2ccccc2C=Cc2ccccc21 [CARBAMAZEPINE]              0.6
2  CC(C)c1ccc2c(c1)CC[C@H]1[C@](C)(CNS(=O)(=O)c3c(F)c(F)c(F)c(F)c3F)CCC[C@]21C              0.8

----------
- measurement_notes: Half life in human microsomes
- Type: ADME, Microsome
readout: half-life (min)

> print(dat)
                            compound.string    readout  unit.abbrev  observed.result
1  CC(C)c1ccc2c(c1)CC[C@H]1[C@](C)(CNS(=O)(=O)c3c(F)c(F)c(F)c(F)c3F)CCC[C@]21C  half-life          min             55.8

----------
# Activity values compiled below
- System: MDA-MB-231
- measurement_notes: Induction of apoptosis in human triple-negative MDA-MB-231 cells assessed as necrotic cells after 12 hrs by Annexin V-FITC/propidium iodide staining-based flow cytometry (reference value: 0.1%)
- Assay type: functional
readout: Activity

> print(dat)
                            compound.string  observed.result
1  CC(C)c1ccc2c(c1)CC[C@H]1[C@](C)(CNS(=O)(=O)c3c(F)c(F)c(F)c(F)c3F)CCC[C@]21C             0.5%
2  CN[C@@H]1C[C@H]2O[C@@](C)([C@@H]1OC)n1c3ccccc3c3c4c(c5c6ccccc6n2c5c31)C(=O)NC4             0.5%
3  CC(C)c1cc2c(cc1O)[C@@]1(C)CCCC(C)(C)[C@@H]1CC2             0.2%
4  CC(C)c1ccc2c(c1)CC[C@H]1[C@](C)(CNS(=O)(=O)c3ccc(C=O)cc3)CCC[C@]21C             0.2%

----------
- measurement_notes: Half life in mouse microsomes
- Type: ADME, Microsome
readout: half-life (min)

> print(dat)
                            compound.string  unit.abbrev  observed.result
1  CC(C)c1ccc2c(c1)CC[C@H]1[C@](C)(CNS(=O)(=O)c3c(F)c(F)c(F)c(F)c3F)CCC[C@]21C          min             30.6

----------
- measurement_notes: Intrinsic clearance in human microsomes
- Type: ADME, Microsome
readout: CLint scaled (mL/min/kg)

> print(dat)
                            compound.string       readout  observed.result
1  CC(C)c1ccc2c(c1)CC[C@H]1[C@](C)(CNS(=O)(=O)c3c(F)c(F)c(F)c(F)c3F)CCC[C@]21C  CLint scaled             22.3

----------
- measurement_notes: Plasma protein binding in mouse
- Type: ADME
- conditions: read-out: PPB (converted)
readout: fraction unbound

> print(dat)
                            compound.string           readout  observed.result
1  CC(C)c1ccc2c(c1)CC[C@H]1[C@](C)(CNS(=O)(=O)c3c(F)c(F)c(F)c(F)c3F)CCC[C@]21C  fraction unbound            0.007

----------
Below: a set of entries, each annotated with reported Papp B→A.
- measurement_notes: Apparent permeability from basolateral to apical side in human Caco2 cells
- Assay type: ADME, cell-based
- conditions: Caco-2
readout: Papp B→A (×10⁻⁶ cm/s)

> print(dat)
                                   compound   readout  observed.result
1  CC(C)c1ccc2c(c1)CC[C@H]1[C@](C)(CNS(=O)(=O)c3c(F)c(F)c(F)c(F)c3F)CCC[C@]21C  Papp B→A             1.57
2  NC(=O)N1c2ccccc2C=Cc2ccccc21 [CARBAMAZEPINE]  Papp B→A             42.8

----------
- measurement_notes: Plasma protein binding in human
- Format: ADME, cell-free
- conditions: read-out: PPB (converted)
readout: fraction unbound

> print(dat)
                            compound.string           readout  observed.result
1  CC(C)c1ccc2c(c1)CC[C@H]1[C@](C)(CNS(=O)(=O)c3c(F)c(F)c(F)c(F)c3F)CCC[C@]21C  fraction unbound            0.052
